Reference source: patent US20110251173A1

Molecular target: human DGAT1 (Homo sapiens)
Construct: made in house; host or cells: Sf9 insect cells (baculovirus), membrane fraction
Sequence (O75907 1-488): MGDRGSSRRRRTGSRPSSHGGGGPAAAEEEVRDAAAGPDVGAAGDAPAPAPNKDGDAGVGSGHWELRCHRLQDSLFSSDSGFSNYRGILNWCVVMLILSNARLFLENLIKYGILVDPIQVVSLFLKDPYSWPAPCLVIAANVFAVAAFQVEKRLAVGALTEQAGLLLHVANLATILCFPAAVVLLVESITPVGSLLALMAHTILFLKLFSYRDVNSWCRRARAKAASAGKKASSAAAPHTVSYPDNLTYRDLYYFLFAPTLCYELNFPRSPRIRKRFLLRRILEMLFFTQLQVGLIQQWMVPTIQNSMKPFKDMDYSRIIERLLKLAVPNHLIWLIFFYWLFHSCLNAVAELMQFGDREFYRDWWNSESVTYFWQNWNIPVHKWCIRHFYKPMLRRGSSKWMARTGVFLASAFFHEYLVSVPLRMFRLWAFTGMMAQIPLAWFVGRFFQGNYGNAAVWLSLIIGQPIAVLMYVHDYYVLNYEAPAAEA
Assay: Human Enzyme Assay (DGAT1 inhibition, 14C oleoyl CoA incorporation into triolein)
Format: biochemical
Details: human DGAT1 expressed in sf9 insect cell membranes; Examples 5 to 24; rounded to 2 decimal places
For each record, check the reported IC50: if it is below 80 nM write true, else write false.

inputSmiles | answerLabel
N#Cc1cc(Cl)ccc1-c1ccc(N2CCOc3ncnc(N)c3C2=O)cc1 | true
N#Cc1c(Cl)cccc1-c1ccc(N2CCOc3ncnc(N)c3C2=O)cc1 | false
Nc1ncnc2c1C(=O)N(c1ccc(-c3ccc(S(N)(=O)=O)cc3Cl)cc1)CCO2 | true
N#Cc1ccc(Cl)cc1-c1ccc(N2CCOc3ncnc(N)c3C2=O)cc1 | false
Cc1ccc(Cl)cc1-c1ccc(N2CCOc3ncnc(N)c3C2=O)cc1 | true
Cc1c(Cl)cccc1-c1ccc(N2CCOc3ncnc(N)c3C2=O)cc1 | false

###

Molecular target: human DGAT1 (Homo sapiens)
Construct: made in house; host or cells: Sf9 insect cells (baculovirus), membrane fraction
Assay: Human Enzyme Assay (DGAT1 inhibition, 14C oleoyl CoA incorporation into triolein)
Assay type: biochemical
Conditions: human DGAT1 expressed in sf9 insect cell membranes; Examples 25 to 59; rounded to 2 decimal places
pIC50: −log10 of the molar value.
Quick reference for pIC50 among some compounds

inputSmiles | pIC50
C[C@@H]1CN(c2ccc(-c3ccc(Cl)cc3C#N)c(F)c2)C(=O)c2c(N)ncnc2O1 | 7.40
C[C@@H]1CN(c2ccc(-c3ccc(CN(C)S(C)(=O)=O)cc3Cl)cc2)C(=O)c2c(N)ncnc2O1 | 7.30
Nc1ncnc2c1C(=O)N(c1ccc(-c3cccc(F)c3F)cc1)CCO2 | 6.49
C[C@@H]1CN(c2ccc(-c3c(F)cccc3F)cc2)C(=O)c2c(N)ncnc2O1 | 7.70
Nc1ncnc2c1C(=O)N(c1ccc(-c3cc(F)c(F)cc3F)cc1)CCO2 | 6.89
C[C@@H]1CN(c2ccc(-c3ccccc3Cl)c(C#N)c2)C(=O)c2c(N)ncnc2O1 | 7.70
Cc1nc(N)c2c(n1)OCCN(c1ccc(-c3ccccc3Cl)cc1)C2=O | 7.05
C[C@@H]1CN(c2ccc(-c3ccc(F)cc3F)c(F)c2)C(=O)c2c(N)ncnc2O1 | 7.70
C[C@@H]1CN(c2ccc(-c3c(F)cccc3Cl)c(F)c2)C(=O)c2c(N)ncnc2O1 | 8.00
C[C@@H]1CN(c2ccc(-c3c(F)cccc3F)c(F)c2)C(=O)c2c(N)ncnc2O1 | 7.70
C[C@@H]1CN(c2ccc(-c3ccccc3F)cc2)C(=O)c2c(N)ncnc2O1 | 7.70
C[C@@H]1CN(c2ccc(-c3ccccc3F)c(F)c2)C(=O)c2c(N)ncnc2O1 | 7.70
Nc1ncnc2c1C(=O)N(c1ccc(-c3ccc(F)cc3F)cc1)CCO2 | 7.22
C[C@@H]1CN(c2ccc(-c3c(Cl)cccc3C#N)c(F)c2)C(=O)c2c(N)ncnc2O1 | 7.15

###

Below, each of the compounds is paired with its reported IC50 value.
Molecular target: human DGAT1 (Homo sapiens, UniProt O75907)
Construct: made in house; host or cells: Sf9 insect cells (baculovirus), membrane fraction
Assay: Human Enzyme Assay (DGAT1 inhibition, 14C oleoyl CoA incorporation into triolein)
Format: biochemical
Conditions: human DGAT1 expressed in sf9 insect cell membranes; Examples 25 to 59; rounded to 2 decimal places

compound | targetEntity | IC50
C[C@@H]1CN(c2ccc(-c3ccc(CNS(C)(=O)=O)cc3Cl)cc2)C(=O)c2c(N)ncnc2O1 [Example 45] | human DGAT1 (Homo sapiens, UniProt O75907) | 60 nM
Cc1nc(N)c2c(n1)OCCN(c1ccc(-c3ccc(CNS(C)(=O)=O)cc3Cl)cc1)C2=O [Example 43] | human DGAT1 (Homo sapiens, UniProt O75907) | 100 nM
C[C@@H]1CN(c2ccc(-c3ccccc3Cl)c(F)c2)C(=O)c2c(N)ncnc2O1 [Example 55] | human DGAT1 (Homo sapiens, UniProt O75907) | 10 nM
C[C@@H]1CN(c2ccc(-c3ccccc3Cl)cc2)C(=O)c2c(N)ncnc2O1 [Example 44] | human DGAT1 (Homo sapiens, UniProt O75907) | 20 nM
C[C@@H]1CN(c2ccc(-c3ccc(CS(C)(=O)=O)cc3Cl)cc2)C(=O)c2c(N)ncnc2O1 [Example 48] | human DGAT1 (Homo sapiens, UniProt O75907) | 60 nM
C[C@@H]1CN(c2ccc(-c3ccc(C#N)cc3Cl)c(F)c2)C(=O)c2c(N)ncnc2O1 [Example 51] | human DGAT1 (Homo sapiens, UniProt O75907) | 20 nM
Nc1ncnc2c1C(=O)N(c1ccc(-c3ccc(Cl)cc3F)cc1)CCO2 [Example 27] | human DGAT1 (Homo sapiens, UniProt O75907) | 40 nM
Nc1ncnc2c1C(=O)N(c1ccc(-c3cc(F)ccc3F)cc1)CCO2 [Example 26] | human DGAT1 (Homo sapiens, UniProt O75907) | 110 nM
